assay: clinical; settings: human, in vivo, iv, 0.4 mg/kg, tmax
property label: Tmax (h)

>>> print(df.to_string())
                                test_smiles  property_label  units_of_measure  recorded_number
0  COc1c(OCCCN2CCOCC2)ccc2c1N=C(NC(=O)c1cnc(N)nc1)N1CCN=C21            Tmax                 h             1.02

----------
assay: clinical; details: human, in vivo, iv, 0.8 mg/kg, t1/2 (half-life associated with terminal slope)
property label: half-life (h)

>>> df
                                test_smiles  property_label  units_of_measure  recorded_number
0  COc1c(OCCCN2CCOCC2)ccc2c1N=C(NC(=O)c1cnc(N)nc1)N1CCN=C21       half-life                 h             35.6

----------
assay: clinical; details: human, in vivo, iv, 0.4 mg/kg, C max
property label: Cmax (ng/mL)

In [3]: df
Out[3]:
                                test_smiles  recorded_number
0  COc1c(OCCCN2CCOCC2)ccc2c1N=C(NC(=O)c1cnc(N)nc1)N1CCN=C21              215

----------
Assay: clinical
Conditions: human, in vivo, 0.4 mg/kg, Geometric mean terminal half-life
Description: Additional PK samples were collected at either 72, 96, or 120 h following the start of infusion. […] Capillary blood glucose testing was to be performed for hyperglycemia management as determined appropriate by the investigator; hyperglycemia was defined as capillary blood glucose >200 mg/dL and was to be treated with short-acting insulin. […]
property label: half-life

>>> df
                                test_smiles  result
0  COc1c(OCCCN2CCOCC2)ccc2c1N=C(NC(=O)c1cnc(N)nc1)N1CCN=C21   ~32 h

----------
assay: clinical; conditions: human, in vivo, iv, 0.8 mg/kg
property label: AUC (ng·h/mL)

                                test_smiles  units_of_measure  recorded_number
0  COc1c(OCCCN2CCOCC2)ccc2c1N=C(NC(=O)c1cnc(N)nc1)N1CCN=C21           ng·h/mL             2350

----------
experiment: clinical; details: human, in vivo, iv, 0.8 mg/kg, AUC(0–8)
property label: AUC(0-t)

>>> df
                                   molecule  property_label       result
0  COc1c(OCCCN2CCOCC2)ccc2c1N=C(NC(=O)c1cnc(N)nc1)N1CCN=C21 [copanlisib, Copanlisib]        AUC(0-t)  812 ng·h/mL

----------
assay: clinical; details: human, in vivo, 0.8 mg/kg, Plasma half-life
property label: half-life

In [3]: df
Out[3]:
                                   compound  property_label      result
0  COc1c(OCCCN2CCOCC2)ccc2c1N=C(NC(=O)c1cnc(N)nc1)N1CCN=C21 [copanlisib, Copanlisib]       half-life  32 to 36 h

----------
assay: clinical; conditions: human, in vivo, iv, 0.4 mg/kg, AUC(0–25)
property label: AUC(0-t) (ng·h/mL)

>>> df
                                test_smiles  recorded_number
0  COc1c(OCCCN2CCOCC2)ccc2c1N=C(NC(=O)c1cnc(N)nc1)N1CCN=C21              789
